System: RXF 393 renal
Experiment: NCI tumour cell line growth inhibition, 48 h
Below, each entry is listed alongside its reported TGI.
parameter: TGI

> print(dat)
                                    compound  assayedtarget  parameter  resultvalue
 1  COc1ccc(C2=C(c3ccc(OC)c(OC)c3)C(=O)N3CCCC3C2)cc1 (stereo not given)  RXF 393 renal        TGI    > 38.2 µM
 2  CCOC1CC(C)N(C(=O)c2ccccc2)O1 (stereo not given)  RXF 393 renal        TGI     > 100 µM
 3  CC1=C(C(=O)N[C@@H](CC(C)C)C(=O)O)N2C(=O)[C@@H](NC(=O)C(N)c3ccccc3)[C@H]2SC1 (stereo not given in full)  RXF 393 renal        TGI     > 100 µM
 4  O=S(=O)(/C=C/CS(=O)(=O)c1ccccc1)c1ccccc1  RXF 393 renal        TGI     > 100 µM
 5  O=C(N/N=C/c1cc(Br)cc(Br)c1[O-])c1ccccc1O.O=C(N/N=C/c1cc(Br)cc(Br)c1[O-])c1ccccc1O.[Co+2]  RXF 393 renal        TGI      10.5 µM
 6      CC(=O)N(C(C)=O)c1cc2c3c(c1)CCCN3CCC2  RXF 393 renal        TGI      > 10 µM
 7  N#Cc1c(-c2ccccc2)c(CN2CCCCC2)c(=O)n2c1[nH]c1ccccc12  RXF 393 renal        TGI     > 100 µM
 8                    c1ccc([I+]c2ccccc2)cc1  RXF 393 renal        TGI     > 100 µM
 9  Nc1ncnc2c1c(-c1ccc(Oc3ccccc3)cc1)nn2C[C@@H]1SSC[C@H]1O  RXF 393 renal        TGI      5.18 µM
10            NC(=O)NC12CC3CC(CC(F)(C3)C1)C2  RXF 393 renal        TGI     > 100 µM

###

Test system: NCI-H522 lung
Assay: NCI tumour cell line growth inhibition, 48 h; in the data active means GI50 below about 0.43 µM; inactive means the rest
Possible outcomes: active, inactive

> print(dat)
                             moleculesmiles  classname
1  Cc1ccc(-c2nc3nc(-c4ccccc4)nc(N4CCNCC4)c3o2)cc1   inactive
2      CN(C)c1ccc(C(=NO)c2ccc(N(C)C)cc2)cc1   inactive
3            O1[As]2O[As]3O[As]1O[As](O2)O3     active
4  C#CCNCCN1C(=O)c2ccc3c4c(ccc(c24)C1=O)C(=O)N(CCNCC#C)C3=O   inactive
5  COc1ccc(/C=C(\C(=O)NCc2cccnc2)S(=O)(=O)c2ccccc2)cc1OC   inactive
6  C[C@]12CC[C@@H]3c4ccc(O)cc4CC[C@H]3[C@@H]1Cc1cnc(N)nc12   inactive
7  COc1cc(OC)c(C(=O)/C=C/c2cccc(C#N)c2)c(OC)c1   inactive

###

System: MDA-MB-231 breast
Assay: NCI tumour cell line growth inhibition, 48 h
parameter: TGI

> print(dat)
                                   compound  parameter  resultvalue
1                    c1ccc([I+]c2ccccc2)cc1        TGI     > 100 µM
2  CC[C@@]1(O)C(=O)OCc2c1cc1n(c2=O)Cc2c-1nc1ccccc1c2/C=N/NC(=O)c1ccc(N)cc1        TGI     > 100 µM
3  CN1CC2CN(Cc3ccccc3)CCN2c2cccnc21 (stereo not given)        TGI     > 100 µM
4  C#CCNCCN1C(=O)c2ccc3c4c(ccc(c24)C1=O)C(=O)N(CCNCC#C)C3=O        TGI      13.6 µM
5  [O-]c1ccccc1/C=N/C(/N=C/c1ccccc1[O-])c1ccccc1O.[O-]c1ccccc1/C=N/C(/N=C/c1ccccc1[O-])c1ccccc1O.[Zr+4]        TGI     > 100 µM
